Target: Cterm-EH activity of human sEH (Homo sapiens, UniProt P34913)
Assay: Inhibition of sEH epoxide hydrolase activity
Type: biochemical
Details: IC50 for Cterm-EH, incubation time 15 min
pIC50: −log10 of the molar value.

Input smiles: O=c1c2ccccc2[se]n1-c1ccccc1
Target under test: Cterm-EH activity of human sEH (Homo sapiens, UniProt P34913)
pIC50: 6.07

* * *

Target: Nterm-phos activity of human sEH (Homo sapiens)
Test: AttoPhos fluorescent endpoint HTS assay for sEH phosphatase activity
Type: biochemical
Conditions: read-out: IC50 Day 1; Day 1, 3 plates
Metric name: IC50 (µM)

Compound: CCCCCCCCCCCCOP(=O)(O)O
Val: 1.8

Compound: CCCCCCCCCCCCS(=O)(=O)O [C00002, dodecyl sulfonate]
Val: 6.3

* * *

Molecular target: UniProtKB P34913
Assay: AttoPhos fluorescent endpoint HTS assay for sEH phosphatase activity
Assay type: biochemical
Conditions: read-out: IC50 Day 3; Day 3, 3 plates
Metric name: IC50 (µM)

Compound: CCCCCCCCCCCCS(=O)(=O)O [C00002, dodecyl sulfonate]
Val: 7.5
--
Compound: CCCCCCCCCCCCOP(=O)(O)O [C00003, dodecyl phosphoric acid]
Val: 2.4

* * *

Biological target: Nterm-phos activity of human sEH (Homo sapiens)
Experiment: AttoPhos assay in kinetic mode
Type: biochemical
Reported IC50 values for a set of compounds

Compound: O=C1c2ccccc2C(=O)N1SC(Cl)(Cl)Cl
Relation operator: =
IC50 [µM]: 25
--
Compound: CC(=O)N1CCN(c2ccc(OCC3COC(Cn4ccnc4)(c4ccc(Cl)cc4Cl)O3)cc2)CC1 (centres unmarked)
Relation operator: >
IC50 [µM]: 100
--
Compound: O=C(O)c1ccccc1C(=O)Nc1ccc(S(=O)(=O)Nc2nccs2)cc1
Relation operator: >
IC50 [µM]: 100
--
Compound: S=C(S)NCCNC(=S)S
Relation operator: >
IC50 [µM]: 100
--
Compound: O=c1c2ccccc2[se]n1-c1ccccc1
Relation operator: =
IC50 [µM]: 0.4

* * *

Target: Nterm-phos activity of human sEH (Homo sapiens, UniProt P34913)
Sequence (P34913 1-555): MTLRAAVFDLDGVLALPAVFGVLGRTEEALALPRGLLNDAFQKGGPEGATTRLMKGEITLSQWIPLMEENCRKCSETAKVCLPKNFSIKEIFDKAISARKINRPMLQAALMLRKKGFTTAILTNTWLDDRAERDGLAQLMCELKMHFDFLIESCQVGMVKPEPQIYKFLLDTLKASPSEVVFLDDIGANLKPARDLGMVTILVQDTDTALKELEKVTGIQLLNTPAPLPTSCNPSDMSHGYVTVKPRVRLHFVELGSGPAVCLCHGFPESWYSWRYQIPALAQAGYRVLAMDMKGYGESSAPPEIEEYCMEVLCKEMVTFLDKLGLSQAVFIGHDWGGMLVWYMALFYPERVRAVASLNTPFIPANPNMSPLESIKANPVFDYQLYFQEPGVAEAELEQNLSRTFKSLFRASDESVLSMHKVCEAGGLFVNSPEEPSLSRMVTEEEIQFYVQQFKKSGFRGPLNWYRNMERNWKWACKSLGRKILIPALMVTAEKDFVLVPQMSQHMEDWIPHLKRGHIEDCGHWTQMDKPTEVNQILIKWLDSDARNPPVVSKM
Assay: AttoPhos fluorescent endpoint HTS assay for sEH phosphatase activity
Format: biochemical
Conditions: read-out: IC50 (nominal inhibition column); nominal / overall value
pIC50: −log10 of the molar value.
Metric name: pIC50

Molecule: CCCCCCCCCCCCOP(=O)(O)O
Val: 5.66
//
Molecule: CCCCCCCCCCCCS(=O)(=O)O [C00002, dodecyl sulfonate]
Val: 5.18

* * *

Target: Cterm-EH activity of human sEH (Homo sapiens, UniProt P34913)
Experiment: Inhibition of sEH epoxide hydrolase activity
Format: biochemical
Conditions: IC50 for Cterm-EH, incubation time 1 min
pIC50: −log10 of the molar value.

Compound: O=c1c2ccccc2[se]n1-c1ccccc1 [ebselen]
pIC50: 5.70

* * *

Target: Nterm-phos activity of human sEH (Homo sapiens, UniProt P34913)
Sequence (P34913 1-555): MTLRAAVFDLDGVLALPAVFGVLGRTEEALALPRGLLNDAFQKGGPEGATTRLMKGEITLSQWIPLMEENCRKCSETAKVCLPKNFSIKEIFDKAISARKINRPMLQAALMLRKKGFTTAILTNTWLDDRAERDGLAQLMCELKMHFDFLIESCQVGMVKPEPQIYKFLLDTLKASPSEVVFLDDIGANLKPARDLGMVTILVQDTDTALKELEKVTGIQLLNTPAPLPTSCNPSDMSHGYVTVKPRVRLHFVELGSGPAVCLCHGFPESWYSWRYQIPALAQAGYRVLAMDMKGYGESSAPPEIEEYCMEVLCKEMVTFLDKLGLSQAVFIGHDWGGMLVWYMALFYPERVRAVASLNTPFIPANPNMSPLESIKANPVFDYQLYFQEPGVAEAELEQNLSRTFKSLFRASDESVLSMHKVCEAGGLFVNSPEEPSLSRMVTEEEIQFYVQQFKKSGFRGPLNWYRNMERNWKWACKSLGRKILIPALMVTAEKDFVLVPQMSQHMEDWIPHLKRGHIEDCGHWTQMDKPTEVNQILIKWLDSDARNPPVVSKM
Assay: AttoPhos fluorescent endpoint HTS assay for sEH phosphatase activity
Type: biochemical
Settings: read-out: IC50 Day 2; Day 2, 3 plates
pIC50: −log10 of the molar value.
This section presents compounds with their documented pIC50 values.

Compound: CCCCCCCCCCCCS(=O)(=O)O [C00002, dodecyl sulfonate]
Target under test: Nterm-phos activity of human sEH (Homo sapiens, UniProt P34913)
pIC50: 5.21
--
Compound: CCCCCCCCCCCCOP(=O)(O)O [C00003, dodecyl phosphoric acid]
Target under test: Nterm-phos activity of human sEH (Homo sapiens, UniProt P34913)
pIC50: 5.64
